Target: human full-length recombinant HDAC1 (Homo sapiens (Human))
Assay: HDAC1 enzymatic activity assay (alternative protocol, Ac-Gly-Ala-Lys(Ac)-AMC)
Format: biochemical
Conditions: 4 nM enzyme, read-out: HDAC1 biochem
Please respond with reported IC50 for every item in the list.

Solved entries:
- given.smiles: "Cn1ncc2c(SCC(=O)c3cc(F)c(CNC(=O)C(C)(C)C)s3)ncnc21"
  measured: "> 10 µM"
- given.smiles: "Cc1nc(SCC(=O)c2ccc(CNC(=O)C(C)(C)C)s2)c2cccnc2n1"
  measured: "1 to 10 µM"

Kindly consider the entry below.
Lab entry: human full-length recombinant HDAC1 (Homo sapiens (Human)) assay, molecule `CC(C)c1nc(SCC(=O)c2ccc(CNC(=O)C(C)(C)C)s2)c2ccccc2n1` , IC50 = > 10 µM

====

Target: catalytic domain 2 (CD2) of HDAC6 (Homo sapiens (Human), UniProt Q9UBN7)
Sequence (Q9UBN7 482-800): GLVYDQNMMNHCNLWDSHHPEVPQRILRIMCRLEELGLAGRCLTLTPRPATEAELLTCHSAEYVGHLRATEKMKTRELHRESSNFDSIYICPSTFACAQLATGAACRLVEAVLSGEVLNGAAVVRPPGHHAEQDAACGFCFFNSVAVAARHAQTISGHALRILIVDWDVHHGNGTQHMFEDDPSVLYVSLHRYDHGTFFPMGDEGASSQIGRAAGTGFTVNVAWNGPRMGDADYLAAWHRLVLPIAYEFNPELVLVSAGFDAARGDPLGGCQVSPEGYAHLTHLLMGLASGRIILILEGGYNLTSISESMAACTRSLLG
Assay: Cellular target engagement assay - NanoBRET
Details: NanoLuc-HDAC6(CD2) in HEK293T cells, 2 hours, read-out: IC50 (HDAC6(CD2) interaction)
pIC50: −log10 of the molar value.
assay.metric: pIC50

Solved entries:
- compound: "COc1ccc2nc(C)nc(SCC(=O)c3ccc(CN(C)C(=O)CO)s3)c2c1 [Compound 109]"
  assay.metric: "pIC50"
  measured: "6.00 to 6.30"
- compound: "COc1cc2c(SCC(=O)c3ccc(CNC(=O)CO)s3)nc(C)nc2cn1 [Compound 121]"
  assay.metric: "pIC50"
  measured: "≥ 7.00"
- compound: "COc1cccc2nc(C)nc(SCC(=O)c3ccc(CNC(=O)CO)s3)c12 [Compound 143]"
  assay.metric: "pIC50"
  measured: "6.30 to 7.00"

Kindly consider the entry below.
Noted for CC(C)(C)C(=O)NCc1ccc(C(=O)CSc2nc(C(F)F)nc3ccccc23)s1 [Example 19] : its pIC50 reads 6.30 to 7.00

====

Please respond with reported IC50 for every item in the list.
Biological target: catalytic domain 2 (CD2) of HDAC6 (Homo sapiens (Human), UniProt Q9UBN7)
Experiment: Cellular target engagement assay - NanoBRET
Settings: NanoLuc-HDAC6(CD2) in HEK293T cells, 2 hours, read-out: IC50 (HDAC6(CD2) interaction)

Answer for every listed entry: what is its IC50? The entries follow.
1. COc1cnc2nc(C)nc(SCC(=O)c3ccc(CNC(=O)CO)s3)c2c1 [Compound 140]
2. COc1ccc2nc(C)nc(SCC(=O)c3ccc(CNC(=O)C(C)(C)C)s3)c2c1 [Example 17]
3. Cc1nc(SCC(=O)c2ccc(CNC(=O)C3CC3(F)F)s2)c2cccnc2n1 (centres unmarked) [Compound 110]
4. COc1ccc2oc(SCC(=O)c3ccc(CNC(=O)CO)s3)nc2c1 [Example 167]
5. O=C(CSc1nc(C(F)(F)F)nc2ccccc12)c1ccc(CCN2CCCC2=O)s1 [Example 26]
6. CCS(=O)(=O)NCc1ccc(C(=O)CSc2nc(C(F)(F)F)nc3ncccc23)s1 [Compound 127]

≤ 0.1 µM
0.1 to 0.5 µM
0.1 to 0.5 µM
1 to 10 µM
0.1 to 0.5 µM
≤ 0.1 µM

Answer for every listed entry: what is its IC50? The entries follow.
1. O=C(CO)NCc1ccc(C(=O)CSc2nc(C(F)(F)F)nc3nn(C4CC4)cc23)s1 [Compound 79]
2. Cc1ccc2oc(SCC(=O)c3ccc(CNC(=O)C(C)(C)C)s3)nc2n1 [Example 23]

["≤ 0.1 µM", "0.1 to 0.5 µM"]

====

Biological target: human full-length recombinant HDAC1 (Homo sapiens (Human), UniProt Q13547)
Sequence (Q13547 whole entry): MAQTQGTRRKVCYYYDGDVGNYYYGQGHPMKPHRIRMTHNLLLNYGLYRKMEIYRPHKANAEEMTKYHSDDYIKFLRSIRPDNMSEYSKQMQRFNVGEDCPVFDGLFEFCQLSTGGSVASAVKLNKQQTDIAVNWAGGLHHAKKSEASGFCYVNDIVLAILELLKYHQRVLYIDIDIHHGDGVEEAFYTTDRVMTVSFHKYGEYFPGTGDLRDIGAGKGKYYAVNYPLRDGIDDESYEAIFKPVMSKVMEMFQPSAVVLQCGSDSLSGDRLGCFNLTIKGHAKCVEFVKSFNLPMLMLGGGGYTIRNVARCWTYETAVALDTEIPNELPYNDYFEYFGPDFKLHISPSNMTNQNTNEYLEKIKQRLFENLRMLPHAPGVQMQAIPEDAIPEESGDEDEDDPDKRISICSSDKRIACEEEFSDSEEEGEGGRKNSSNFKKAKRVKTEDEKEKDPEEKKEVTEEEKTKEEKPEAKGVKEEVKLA
Assay: HDAC1 enzymatic activity assay (Reaction Biology Corporation, RHKKAc fluorogenic peptide)
Type: biochemical
Conditions: Reaction Biology Corporation protocol, RHKKAc fluorogenic peptide 10 μM; read-out: HDAC1 biochem
pIC50: −log10 of the molar value.
assay.metric: pIC50

- compound: "COc1cc2c(SCC(=O)c3ccc(CNC(=O)CO)s3)nc(C)nc2cc1F [Compound 75]"
  pIC50: "< 5.00"

Answer for every listed entry: what is its pIC50? The entries follow.
1. Cc1nc(SCC(=O)c2ccc(CNC(=O)CO)s2)c2cc(F)cnc2n1 [Compound 124]
2. O=C(CSc1nc(C(F)(F)F)nc2ncccc12)c1ccc(CNC(=O)C2CC2(F)F)s1 (centres unmarked) [Compound 114]
3. O=C(CO)NCc1ccc(C(=O)CSc2nc(C(F)(F)F)nc3c2cnn3C2CC2)s1 [Compound 133]
4. O=C(CO)NCc1ccc(C(=O)CSc2nc3ncc(C(F)(F)F)cc3o2)s1 [Compound 118]
5. Cc1nc(SCC(=O)c2ccc(CNC(=O)CO)s2)c2cc(N3CCN(C)CC3)ccc2n1 [Compound 85]

1: < 5.00; 2: < 5.00; 3: < 5.00; 4: 6.00 to 6.30; 5: < 5.00

Answer for every listed entry: what is its pIC50? The entries follow.
1. O=C(CO)NCc1ccc(C(=O)CSc2nc(C(F)(F)F)nc3cccnc23)s1 [Compound 152]
2. COc1cc(C(F)(F)F)cc2c(SCC(=O)c3ccc(CNC(=O)CO)s3)nc(C)nc12 [Compound 148]
3. COc1cnc2nc(C)nc(SCC(=O)c3ccc(CNC(=O)CO)s3)c2c1 [Compound 140]

["< 5.00", "< 5.00", "< 5.00"]

Answer for every listed entry: what is its pIC50? The entries follow.
1. COCCn1cc2c(SCC(=O)c3ccc(CNC(=O)CO)s3)nc(C(F)(F)F)nc2n1 [Compound 132]
2. Cc1nc(SCC(=O)c2ccc(CNC(=O)CO)s2)c2cc(Cl)c(F)cc2n1 [Compound 73]

< 5.00
< 5.00

Answer for every listed entry: what is its pIC50? The entries follow.
1. O=C(CO)NCc1ccc(C(=O)CSc2nc3cc(C(F)(F)F)ncc3o2)s1 [Compound 71]
2. O=C(CO)NCc1ccc(C(=O)CSc2nc3nc(C(F)(F)F)ccc3o2)s1 [Compound 72]
3. Cc1nc(SCC(=O)c2ccc(CNC(=O)CO)s2)c2cccnc2n1 [Compound 64]
4. O=C(CO)NCc1ccc(C(=O)CSc2nc(C(F)(F)F)nc3nn(C4CC4)cc23)s1 [Compound 79]
5. Cn1cc2c(SCC(=O)c3ccc(CNC(=O)CO)s3)nc(C(F)(F)F)nc2n1 [Compound 61]

["5.00 to 6.00", "6.00 to 6.30", "< 5.00", "< 5.00", "< 5.00"]

Noted for O=C(CSc1nc(C(F)(F)F)nc2ncccc12)c1ccc(CN2CCOCC2=O)s1 [Example 138] : its pIC50 reads < 5.00

====

Please respond with reported pIC50 for every item in the list.
Target: human full-length recombinant HDAC1 (Homo sapiens (Human), UniProt Q13547)
Assay: HDAC1 enzymatic activity assay (alternative protocol, Ac-Gly-Ala-Lys(Ac)-AMC)
Type: biochemical
Details: 4 nM enzyme, read-out: HDAC1 biochem
pIC50: −log10 of the molar value.

Solved entries:
- molecule: "COCC(=O)NCc1ccc(C(=O)CSc2ncnc3c2cnn3C)s1 [Compound 58]"
  pIC50: "< 5.00"
- molecule: "CC(C)(C)C(=O)NCc1ccc(C(=O)CSc2nncc3ccccc23)s1 [Example 193]"
  pIC50: "< 5.00"
- molecule: "O=C(NCCc1ccc(C(=O)CSc2nc(C(F)(F)F)nc3ccccc23)s1)c1ccccc1 [Example 37]"
  pIC50: "< 5.00"
- molecule: "Cc1nc(SCC(=O)c2ccc(CNC(=O)C3CC3)s2)c2ccccc2n1 [Example 35]"
  pIC50: "< 5.00"
- molecule: "Cn1ncc2c(SCC(=O)c3ccc(CNC(=O)Cc4ccccn4)s3)ncnc21 [Compound 55]"
  pIC50: "< 5.00"

Answer for every listed entry: what is its pIC50? The entries follow.
1. Cn1ncc2c(SCC(=O)c3ccc(CNS(=O)(=O)Cc4ccccc4)s3)ncnc21 [Compound 90]
2. Cc1nc(SCC(=O)c2ccc(CNC(=O)C(C)(C)C)s2)c2ccccc2n1 [Example 3]

< 5.00
5.00 to 6.00

Answer for every listed entry: what is its pIC50? The entries follow.
1. Cc1nc(SCC(=O)c2ccc(CNC(=O)C(C)(C)C)s2)c2cc(F)ccc2n1 [Example 9]
2. Cc1nc(SCC(=O)c2ccc(CNS(C)(=O)=O)s2)c2ccccc2n1 [Compound 97]

["< 5.00", "5.00 to 6.00"]

====

Biological target: catalytic domain 2 (CD2) of HDAC6 (Homo sapiens (Human), UniProt Q9UBN7)
Experiment: Cellular target engagement assay - NanoBRET
Conditions: NanoLuc-HDAC6(CD2) in HEK293T cells, 2 hours, read-out: IC50 (HDAC6(CD2) interaction)
Experimental: NanoBRET target engagement was performed against the catalytic domain 2 (CD2) of HDAC6, with minor modifications of kit manufacturer protocol (Promega). […] BRET ratios were calculated from acceptor/donor signal ratio (mBRET=acceptor/donor*1000) and normalized for each plate. Percentage inhibition was calculated by setting the mBRET obtained with cells without tracer to 100%, while the mBRET obtained with uninhibited cells with tracer was set to 0%. […]
pIC50: −log10 of the molar value.
assay.metric: pIC50

- compound: "Cc1nc(SCC(=O)c2ccc(CNC(=O)CO)s2)c2cc(F)cnc2n1"
  pIC50: "≥ 7.00"
- compound: "Cc1nc(SCC(=O)c2ccc(CNC(=O)C(C)(C)C)s2)c2cnn(C)c2n1"
  pIC50: "6.00 to 6.30"
- compound: "Cn1ncc2c(SCC(=O)c3ccc(CNC(=O)CO)s3)nc(C(F)(F)F)nc21"
  pIC50: "≥ 7.00"
- compound: "COc1ccc2nc(C)nc(SCC(=O)c3ccc(CNC(=O)[C@H](C)O)s3)c2c1"
  pIC50: "≥ 7.00"
- compound: "CC(=O)NCCc1ccc(C(=O)CSc2nc3nc(C)ccc3o2)s1"
  pIC50: "6.30 to 7.00"
- compound: "Cc1nc(SCC(=O)c2ccc(CNC(=O)C(C)(C)C)s2)c2cccc(F)c2n1"
  pIC50: "6.30 to 7.00"
- compound: "COc1ccc2nc(C)nc(SCC(=O)c3ccc(CNC(=O)N(C)C)s3)c2c1"
  pIC50: "6.30 to 7.00"
- compound: "Cn1ncc2c(SCC(=O)c3ccc(CNC(=O)C(O)C(F)(F)F)s3)ncnc21 (stereo not shown)"
  pIC50: "6.00 to 6.30"

Answer for every listed entry: what is its pIC50? The entries follow.
1. Cn1ncc2c(SCC(=O)c3ccc(CNC(=O)Cc4ccncc4)s3)ncnc21
2. O=C(CSc1nc2nc(C(F)(F)F)ccc2o1)c1ccc(CNC(=O)C2(O)CC2)s1
3. O=C(CSc1nc(C(F)(F)F)nc2ncccc12)c1ccc(CN2CCC(O)C2=O)s1 (stereo in doubt)
4. Cn1ncc2c(SCC(=O)c3ccc(C4CCN(S(N)(=O)=O)C4)s3)ncnc21 (stereo not shown)
5. Cc1nc(SCC(=O)c2ccc(CNC(=O)CO)s2)c2cn(C)nc2n1
6. O=C(CO)NCc1ccc(C(=O)CSc2nc3cc(Cl)cnc3[nH]2)s1
7. CNc1cc(C(F)(F)F)cc2c(SCC(=O)c3ccc(CNC(=O)CO)s3)nc(C)nc12
8. Cc1nc(SCC(=O)c2ccc(CNS(C)(=O)=O)s2)c2ccccc2n1

["6.30 to 7.00", "≥ 7.00", "≥ 7.00", "6.00 to 6.30", "6.00 to 6.30", "5.00 to 6.00", "6.30 to 7.00", "6.30 to 7.00"]

Answer for every listed entry: what is its pIC50? The entries follow.
1. COc1ccc2nc(C)nc(SCC(=O)c3ccc([C@H](C)NC(=O)CO)s3)c2c1
2. Cn1ncc2c(SCC(=O)c3cc(F)c(CNC(=O)C(C)(C)C)s3)ncnc21
3. Cc1nc(SCC(=O)c2ccc(CNC(=O)CO)s2)c2cc(N3CCOCC3)ccc2n1

1. 6.30 to 7.00
2. 6.00 to 6.30
3. ≥ 7.00
